Values from PubChem BioAssay (EPA / NIEHS)

Read-out: Glutathione S-Transferase (GSTA2), GSTA2 (gene 2939)
ASSAY: LTEA_HepaRG_GSTA2: Life Technologies and Expression Analysis (LTEA) Assay for Glutathione S-Transferase (GSTA2) using HepaRG (AID 2283497)
APPLIED CONDITIONS: mRNA level, 48 h; actives raise or lower the signal
Active and inactive are the calls of the source. The calls were made as follows: active = hit-call score of the fitted dose curve at least 0.9, where 1 is the maximum; inactive = score below 0.9.
Your reply should match one of these outcome classes. label 1 for active, label 0 for inactive

COMPOUND	QUALITATIVE LABEL
C[C@]12C=CC(=O)C=C1CC[C@H]1[C@@H]3C[C@@H](O)[C@](O)(C(=O)CO)[C@@]3(C)C[C@H](O)[C@@]12F	label 0

Outcome? NC(=O)N(O)[C@@H]1COc2cc(OCc3ccccc3)ccc21 label 0

Write down the call the test reported for this compound. Item: CC(C)CCCCCCOC(=O)C1CCCCC1C(=O)OCCCCCCC(C)C (stereo unspecified) label 0

Short answer needed: outcome of this test for OC(CCl)CCl ? label 0

Dear all, I need the recorded test outcome for c1ccc2ncccc2c1 , thank you. label 0

State the result this test recorded for CCCCN1C(=O)[C@@H]([C@H](O)C2CCCCC2)NC(=O)C12CCN(Cc1ccc(Oc3ccc(C(=O)O)cc3)cc1)CC2 . label 1

Recorded test outcome, item CCOC(N)=O label 0

Returns: the outcome recorded for COc1cc(C(C)C)c2c(c1)S(=O)(=O)N(COc1cc(=O)n3cccc(OCCN4CCCCC4)c3n1)C2=O in this assay. label 1

Status in this test for CNC(C)=O ? label 0

For this compound, state the assay outcome: O=C(NO)C1(NS(=O)(=O)c2ccc(Oc3ccc(F)cc3)cc2)CCOCC1 label 1

What outcome does the record of this test show for O=C(O)c1cccc(C[C@@H]2COc3ccc(OCc4nc5cc(F)ccc5s4)cc3[C@@H]2O)c1 ? label 0
